Target: T1, PACAP-R3 (human, UniProt P41587 24-438)
T1 sequence (looked up): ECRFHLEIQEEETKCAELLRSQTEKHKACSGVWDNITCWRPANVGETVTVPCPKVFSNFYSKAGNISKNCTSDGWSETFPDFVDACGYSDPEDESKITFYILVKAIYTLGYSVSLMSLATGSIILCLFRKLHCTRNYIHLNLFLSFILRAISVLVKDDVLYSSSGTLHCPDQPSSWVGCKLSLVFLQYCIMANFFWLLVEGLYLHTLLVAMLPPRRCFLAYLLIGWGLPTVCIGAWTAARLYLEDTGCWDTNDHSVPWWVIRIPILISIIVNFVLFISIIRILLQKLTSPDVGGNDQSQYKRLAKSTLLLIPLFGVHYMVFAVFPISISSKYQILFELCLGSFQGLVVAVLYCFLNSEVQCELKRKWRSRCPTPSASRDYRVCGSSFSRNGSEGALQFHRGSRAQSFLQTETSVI
Test: cell-based or functional assay
No end group written: not given here.
observed property: R3 Selectivity

Solved entries:
Input: Entry HSDGIFTESYSRYRKQMAVKKYLAALKKKRYKQRVKNK [R3P6] has what R3 Selectivity?
Output: 3

Input: Input HSDAVFTDNYTRLRKQMAAKKYLNSINNKR [R3P125]
Output: 30

Input: Input HSDAVFTDNYTRLRKQMAVKKYLNSILK [R3P43]
Output: 10

Input: Input HSDAVFTDNYTRLRKQMAAKKYLNSIKNKA [R3P153]
Output: 200

Input: Input HSDAVFTDNYTRLRKQLAAKKYLNSIKNGGT [R3P30]
Output: 50

Input: Input HSDAVFTDNYTRLRKQMAAKKYLNSIKNKH [R3P159]
Output: 400

Input: Input HSDGIFTDSYSRYRKQMAVKKYLAAVKQGGT-NH2 [R3P16]
Output: 1.4

Input: Input HSDAVFTDNYTRLRKQMAAKKYLNSILN [R3P47]
Output: 6

(A) HSDAVFTENYTKLRKQLAAKKYLNDLLNGGT [R3P10]
(B) HSDAVFTDNYTRLRKQMAVKKYLNSIKK [R3P41]
(C) HSDAVFTDNYTRLRKQMAKKKYLNSIKNKR [R3P104]
Input: Arrange items by their R3 Selectivity values in increasing order. Give your ranking as a list of the labels in the requested order.
Output: A, B, C

(A) HSDAVFTDNYTRLRKQMAAKKYLNSIANKR [R3P116]
(B) HSDAVFTDNYTRLRKQMAAKKYLNSIQNKR [R3P127]
Input: Given A and given B , which shows the smaller recorded R3 Selectivity? Your answer should be the label attached to the chosen record.
Output: A
(A: 20, B: 600)
